PROTOCOL SUMMARY: Human HepG2 cell viability assay in 384 well format
Format: toxicity, cell-based
Parameters: dose 125 nL, time 70.5 hour; concentration not given beside the values
MEASUREMENT CONDITIONS: HepG2 cells, read-out: Inhibition
MEASUREMENT TYPE: cytotoxicity at 70.5 h (%)
Express the result in % but write the number alone.

Quick check: cytotoxicity at 70.5 h of Cc1cc(=O)n2ncnc2n1CC(O)c1ccc(F)cc1F (centres undefined) ?
-16.6

Consider the compound `COc1ccc(C(=O)NS(=O)(=O)c2cccc(C#N)c2)cc1` and give its measured cytotoxicity at 70.5 h.
13.5

Give the measured cytotoxicity at 70.5 h of `CNC(=O)CCNC(=O)c1cc(Br)c2c(c1)OCCO2` .
-6.67

Recorded cytotoxicity at 70.5 h of COc1ccc(CN2CCC3(CC(=O)N(c4cccc(F)c4)C3)C2)cc1 (centres undefined) , please.
-10.4

Quick one: cytotoxicity at 70.5 h for `CCOc1ccc(N2CCCN=C2NC(=O)c2ccc(Cl)cc2)cc1` ?
-1.22

cytotoxicity at 70.5 h for CCCOc1ccc(CNC2CCCc3c2cnn3CC)cc1OC (centres undefined) ?
29.4

What value of measured cytotoxicity at 70.5 h is listed for `COc1ccc(NC(=O)c2nc3ccccc3n(C)c2=O)cc1OC` ?
29.1

Requested field: cytotoxicity at 70.5 h. Item: `CCOCCCC(=O)Nc1cccnc1-n1ccnc1C`
-6.87

Item `COC(=O)C1=NN2C(=NS(=O)(=O)c3ccccc32)N1` has what recorded cytotoxicity at 70.5 h?
-89.7

Fill in: cytotoxicity at 70.5 h of `COc1cccc(CCC(=O)Nc2cnc3c(c2)c(C)nn3C)c1OC` is ___
-14.1

Which cytotoxicity at 70.5 h is listed for O=C1CCCN1CC1CCCCN1C(=O)Nc1cccnc1 (centres undefined) ?
-1.1

For Cc1ccc(CCCC(=O)N2CCCC(CS(N)(=O)=O)C2)s1 (centres undefined) , what is its reported cytotoxicity at 70.5 h?
-5.56

Which cytotoxicity at 70.5 h is listed for CCn1ccnc1CNC1CC(=O)N(CCc2cccc(Cl)c2)C1 (centres undefined) ?
-2.81

# lookup: cytotoxicity at 70.5 h of O=C(CCCc1ccccn1)N1CCCC(n2cccn2)C1 (centres undefined)
-3.36

Sample CCCC(C(=O)NCCc1nc(C)cs1)N(C)C (centres undefined) — what was its cytotoxicity at 70.5 h?
2.88

Data request, read-out cytotoxicity at 70.5 h, for `Cn1ncc(Cl)c1C(=O)NCCN1CCC(O)(c2ccc(F)cc2)CC1`
5.46

# input compound: COc1ncnc(N)c1CNCC(C)SC (centres undefined) ; wanted: its cytotoxicity at 70.5 h
34.8

# query: cytotoxicity at 70.5 h of entry `Cn1cc(C(=O)N[C@H]2CN(Cc3nccs3)[C@@H]3CCCO[C@H]23)cn1`
-8.57

Param item = `Cc1ccnc(OC[C@@]23CCO[C@@H]2CCN(C2CCC2)C3)n1` ; retrieve measured cytotoxicity at 70.5 h.
4.5

What does the data say about its cytotoxicity at 70.5 h? Entry: `CC(C)CCNc1c(C#N)c2c(c3nncn13)CN(C)CC2`
-3.96

Look at this compound and give its reported cytotoxicity at 70.5 h. `CNC(=O)c1cc(C)ccc1NCc1cn2cc(C)ccc2n1`
-2.87

GET /values?readout=cytotoxicity at 70.5 h&item= O=C1N(C2CCCCC2)CCCC12CCN(S(=O)(=O)c1cccnc1)C2 (centres undefined)
-5.02

For the compound shown here, `CCN(Cc1nc2c(cnn2C)c(=O)[nH]1)Cc1ccccc1C` , give the reported cytotoxicity at 70.5 h.
1.06

I'd like to know its cytotoxicity at 70.5 h. The compound in question is Cc1ccn(Cc2nc(C(C)OCC(C)C)no2)c(=O)c1 (centres undefined)
3.64

* * *

Assignment: determine reported cytotoxicity at 70.5 h for the given compounds.
PROTOCOL SUMMARY: Human HepG2 cell viability assay in 384 well format
Format: toxicity, cell-based
Design: dose 125 nL, time 70.5 hour; concentration not given beside the values
MEASUREMENT CONDITIONS: HepG2 cells, read-out: Inhibition
Express your answer in %, writing the number without its unit.

cytotoxicity at 70.5 h lookup needed for `O=C(C1CCOCC1)N1C[C@H](OCc2cccnc2)[C@H]2COC[C@H]21` , thanks.
-5.49

Endpoint output: cytotoxicity at 70.5 h of `CCOC(=O)c1ccc(NC(=O)c2c(O)nc3c(c2O)CCCC3)cc1` . Value?
-10.8

# get_value(readout='cytotoxicity at 70.5 h', item= `CN(C(=O)c1ncn2c1CN(C)S(=O)(=O)c1ccccc1-2)C1CC1` )
-3.76

# query: cytotoxicity at 70.5 h of entry `CN(C)C(=O)N1CCn2c(Cn3cccn3)cnc2C1`
1.93

Sample CC(=O)N1CCC(CN2CCN(Cc3nccn3C)C(C)C2)CC1 (stereo not drawn) — what was its cytotoxicity at 70.5 h?
2.21

For the compound shown here, `O=C1CCC(c2ccccc2)(c2ccccc2)CN1CCO` , give the reported cytotoxicity at 70.5 h.
-3.47

Any idea what cytotoxicity at 70.5 h was measured for COCCN1CCCC(c2nc(C)n3c(C)c(C)sc23)C1 (stereo not drawn) ?
-5.38

Name the reported cytotoxicity at 70.5 h value associated with the compound `CCSCCNc1cc(C)nc2c(C)c(C)nn12`
-4.65

Name the reported cytotoxicity at 70.5 h value associated with the compound `COc1ccc(CS(=O)(=O)CC(=O)NCc2ccccc2F)cc1F`
-11.2

Could you share which cytotoxicity at 70.5 h value was measured for `Cc1nc(C(C)C)sc1CNC(=O)CCCN1CCCCC1` ?
30.6

Form field: reported cytotoxicity at 70.5 h of CC(C)CN1CCCC2(CCN(c3ccc(C#N)cn3)C2)C1 (stereo not drawn)
2.01

Fill blank: measured cytotoxicity at 70.5 h of the compound CN(Cc1cc(C2CC2)[nH]n1)C(=O)C(c1cccnc1)N1CCCC1 (stereo not drawn) is ____.
-3.32

Item c1cc(-c2cncnc2)cc(-c2ccn(CC3CCNC3)n2)c1 (stereo not drawn) has what recorded cytotoxicity at 70.5 h?
-15.7

Fill in: cytotoxicity at 70.5 h of `CCS(=O)(=O)NCc1nc(C)cc(N2CCCC2)n1` is ___
19.2

For the compound shown here, NC(=O)c1ccc(OCC(=O)NC2CCc3c(F)cccc32)cc1 (stereo not drawn) , give the reported cytotoxicity at 70.5 h.
-5.14

For the compound `NC(=O)CCn1ccc(NC(=O)C2(c3ccc(F)cc3)CCC2)n1` , what cytotoxicity at 70.5 h is on record?
1.99

Data request, read-out cytotoxicity at 70.5 h, for `Cc1nccn1CCCC(=O)N1CCCN(c2cccnn2)CC1`
-2.35

Would you mind telling me what cytotoxicity at 70.5 h value was observed for `O=C1[C@H]2CN(Cc3ccncc3)C[C@H]2CN1c1ccsc1` ?
-10.1

I have this compound here, O=C(NCc1nnc2ccccn12)N1CCOC(c2cccs2)C1 (stereo not drawn) , and I need its recorded cytotoxicity at 70.5 h.
-8.39

Please give the measured cytotoxicity at 70.5 h for this compound: CCOc1ccc(C(=O)N2CCCC2c2c(C)nn(C)c2OC)cn1 (stereo not drawn)
-4.47

For the compound `Cn1cc(-c2csc(N3CCOCC3)n2)cn1` , what cytotoxicity at 70.5 h is on record?
-3.47

Entry under review: `CNC(=O)[C@@H]1CC[C@@H]2[C@@H](CCN2Cc2cn(C)c3ccccc23)O1` . Reported cytotoxicity at 70.5 h?
-3.34

Which value of cytotoxicity at 70.5 h has been reported for `O=C(NC[C@H]1OC[C@@H](NCc2ccccn2)[C@@H]1O)c1ccncc1` in the records?
-1.84

Value lookup for cytotoxicity at 70.5 h; key = `CN1CCC(c2cnc(NCc3nccn3C)cn2)CC1`
17.9

// lookup cytotoxicity at 70.5 h for O=C(c1cccc(O)n1)N1CCC(O)(CN2CCC(F)(F)CC2)C1 (stereo not drawn)
-8.18

Requested field: cytotoxicity at 70.5 h. Item: `CCn1nc(CC(C)C)cc1C(=O)N1CC[C@@H](O)C1`
-3.86

Give its cytotoxicity at 70.5 h value. Item: O=C(CCc1cccnc1)N1CCCC(n2cncn2)C1 (stereo not drawn)
-2.85

What cytotoxicity at 70.5 h value was documented for this compound, OC(CN(Cc1ccccc1)Cc1cccnc1)c1ccco1 (stereo not drawn) ?
14.4

# input compound: `COc1ccc(Oc2cccnc2)cc1CN1CCCC1` ; wanted: its cytotoxicity at 70.5 h
28.5

Name the recorded cytotoxicity at 70.5 h for `CCN(CC(=O)NC)C(=O)c1csc(Cc2ccccc2)n1` .
-2.3

Fill in: cytotoxicity at 70.5 h of Cc1nc(Cn2c3c(ccc2=O)CC(N)CC3)cs1 (stereo not drawn) is ___
4.04

Entry under review: CC(C)COCC(NC(=O)c1cnccn1)c1ccco1 (stereo not drawn) . Reported cytotoxicity at 70.5 h?
-10.5

Entry `CC(=O)N1CCC2(CC1)CN(C(=O)c1ccc3c(c1)OCCO3)C2` : reported cytotoxicity at 70.5 h = ?
5.66

Please report the recorded cytotoxicity at 70.5 h for `CCN(CC)CC[C@H]1CN(C(=O)C2CCC2)CC[C@H]1CC(=O)O` .
5.37

I have this compound here, c1cnc(N2CCCC3(CCN(CC4CCC4)C3)C2)nc1 (stereo not drawn) , and I need its recorded cytotoxicity at 70.5 h.
-8.21

Data request, read-out cytotoxicity at 70.5 h, for COc1cccc(CNCC2CN(C)CCO2)c1 (stereo not drawn)
-7.17

For COc1cccc(CNCc2nnc3n2CC(C(F)(F)F)CC3)c1 (stereo not drawn) , what is its reported cytotoxicity at 70.5 h?
6.13

Need cytotoxicity at 70.5 h of `CC(C)(C)NC(=O)CNc1ccc(C#N)c(C(F)(F)F)c1` , thanks.
-5.25

Quick one: cytotoxicity at 70.5 h of `COc1ccc(-c2nc(CN3CCN(CCO)CC3)co2)cc1` ?
30.3

Quick one: cytotoxicity at 70.5 h for `O=C1CCNc2ncc(-c3cccc(Cl)c3)cc2CN1C1CC1` ?
-1.89

Need cytotoxicity at 70.5 h of CN(C)Cc1ccnc(C2CN(Cc3c(F)cccc3F)CCO2)n1 (stereo not drawn) , thanks.
-6.34

Which cytotoxicity at 70.5 h value belongs to Cc1ccc(CN2CCN(C(=O)c3ccc(CO)cc3)C(C)C2=O)cc1 (stereo not drawn) ?
-17.6

Look at this compound and give its reported cytotoxicity at 70.5 h. `CN1CCN(c2ncccc2CNc2ncccc2C#N)CC1`
-10.7

Fill in the blank: the reported cytotoxicity at 70.5 h of `COC(=O)N1CC(C)=C(C)CN1C(=O)Nc1cccc(Cl)c1` is ____.
0.501

Name the recorded cytotoxicity at 70.5 h for `CCc1ccsc1C(=O)N(C)CCc1ccncc1` .
-1.38

Could you share which cytotoxicity at 70.5 h value was measured for c1csc(-c2nc(CNC3CCc4ncnn4C3)co2)c1 (stereo not drawn) ?
-10

Can you look up the measured cytotoxicity at 70.5 h of `CC(C)N(C)CCCNC(=O)c1cnn(C(C)(C)C)c1C(F)(F)F` for me?
-7.79

Look up cytotoxicity at 70.5 h for this compound: `Cc1nc(O)cc(CN2CC=C(c3cnn(C(C)(C)C)c3)CC2)n1`
-10.5
